# reported Relative binding activity, %; entries follow
# Target: T1, Biotin-huCGRPaSA (human, not fully specified; biotin (position not given))
# T1 construct: exact construct ('aSA') not explained; also called Biotin CGRPaSA; full-length (1-37) CGRP
# T1 peptide: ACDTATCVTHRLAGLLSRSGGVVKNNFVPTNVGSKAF
# Protocol details: ELISA, supernatant; relative to chimeric C245

[
  {
    "Binder": "hu104 (antibody, V domains shown, 2A2 HC-1/3H10 LC2-2) VH: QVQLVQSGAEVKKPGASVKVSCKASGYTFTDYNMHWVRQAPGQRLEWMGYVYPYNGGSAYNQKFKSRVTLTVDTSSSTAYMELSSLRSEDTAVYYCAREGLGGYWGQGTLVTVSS VL: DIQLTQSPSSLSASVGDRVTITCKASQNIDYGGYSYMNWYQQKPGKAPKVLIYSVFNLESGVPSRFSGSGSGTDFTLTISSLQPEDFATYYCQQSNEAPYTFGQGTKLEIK",
    "Relative binding activity, %, %": 45
  },
  {
    "Binder": "hu197 (antibody, V domains shown, 3H10 HC-1/1A2 LC2-2) VH: QVQLVQSGAEVKKPGASVKVSCKASGYTFTDYNMHWVRQAPGQGLEWMGYIYPYNGHTVYNQKFRNRVTMTVDTSSSTAYMELRSLRSDDTAVYYCAKEGLGGYWGQGTLVTVSS VL: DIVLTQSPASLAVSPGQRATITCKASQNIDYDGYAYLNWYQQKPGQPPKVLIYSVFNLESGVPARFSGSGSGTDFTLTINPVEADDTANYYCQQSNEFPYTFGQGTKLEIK",
    "Relative binding activity, %, %": 49
  },
  {
    "Binder": "hu200 (antibody, V domains shown, 3H10 HC-1/1F5 LC1-1) VH: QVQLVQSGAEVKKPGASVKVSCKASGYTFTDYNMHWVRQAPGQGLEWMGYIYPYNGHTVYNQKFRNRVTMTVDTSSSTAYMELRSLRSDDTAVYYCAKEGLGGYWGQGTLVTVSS VL: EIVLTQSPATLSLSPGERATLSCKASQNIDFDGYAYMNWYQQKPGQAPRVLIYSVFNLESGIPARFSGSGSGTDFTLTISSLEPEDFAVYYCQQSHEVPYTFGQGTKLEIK",
    "Relative binding activity, %, %": 43
  },
  {
    "Binder": "hu185 (antibody, V domains shown, 3E5 HC-4/1A2 LC2-3) VH: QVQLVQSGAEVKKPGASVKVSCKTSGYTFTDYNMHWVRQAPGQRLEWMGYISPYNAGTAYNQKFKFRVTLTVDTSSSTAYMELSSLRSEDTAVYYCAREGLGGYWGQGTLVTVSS VL: EIVLTQSPATLSLSPGERATLSCKASQNIDYDGYAYLNWYQQKPGQAPRVLIYSVFNLESGIPARFSGSGSGTDFTLTISSLEPEDFAVYYCQQSNEFPYTFGQGTKLEIK",
    "Relative binding activity, %, %": 19
  },
  {
    "Binder": "hu219 (antibody, V domains shown, 3H10 HC-2/3E5 LC-1) VH: QVQLVQSGAEVKKPGASVKVSCKASGYTFTDYNMHWVRQAPGQGLEWMGYIYPYNGHTVYNQKFRNRVTLTVDTSSSTAYMELRSLRSDDTAVYYCAREGLGGYWGQGTLVTVSS VL: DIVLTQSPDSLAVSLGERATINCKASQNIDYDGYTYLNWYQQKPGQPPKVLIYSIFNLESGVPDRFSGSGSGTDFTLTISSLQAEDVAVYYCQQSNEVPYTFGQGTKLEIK",
    "Relative binding activity, %, %": 78
  }
]
